assay.name: NCI Yeast Anticancer Drug Screen. Data for the mec2-1 strain (AID 157)
experimental.context: S. cerevisiae mec2-1 strain, at 50.0 µM, hits give high values
Compounds without any hit were thinned out: in the full panel of roughly 79,000, 15% have a hit.
Kind request: treat 10% as inclusive, so growth inhibition at 10% or higher is met, anything lower is not met.

Does growth inhibition meet or surpass 10% for O=S(/C=C/C=C/S(=O)(=O)c1ccccc1)c1ccccc1 (stereo not given) ?
met

Does growth inhibition meet or surpass 10% for `CSc1ncnc2c1ncn2CCC(=O)O` ?
met

Further cases:
Does growth inhibition meet or surpass 10% for `N#CC(F)(F)C(F)(F)C(F)(F)C(F)(F)C(F)(F)C(F)(F)C(F)(F)F` ?
not met

Does growth inhibition meet or surpass 10% for `CC[N+](C)(CC)Cc1ccc([NH-])c([NH-])c1.[Cl][Pt+2][Cl]` ?
met

Does growth inhibition meet or surpass 10% for `CCOC(=O)NN(C(=O)OCC)C(=C(C1=CCCCC1)N1CCOCC1)N(NC(=O)OCC)C(=O)OCC` ?
not met

* * *

Collected growth inhibition values appear next to each entry.
assay.name: NCI Yeast Anticancer Drug Screen. Data for the mec2-1 strain (AID 157)
experimental.context: S. cerevisiae mec2-1 strain, at 50.0 µM, hits give high values
Experimental: Growth inhibition of yeast strains with defined genetic alterations is measured as a screen for potential anti-cancer activity. Selected strains with alterations in DNA damage repair or cell cycle control were exposed to compounds and growth inhibition was measured relative to vehicle treated controls. The strain used in this assay is mec2-1
This is part of a sample that, as a whole, favours compounds with a hit. Of some 79,000 tested, about 15% had one in any assay.
Form entry: value (%) — number only.

Observe how each entry below is paired with its result.
Report growth inhibition for `Cc1ccc(OC/C=C/c2ccc(C#N)cc2)cc1` please.
0.05

Report growth inhibition for O=C(c1ccc(C2CCCCC2)cc1)C(C(c1ccccc1)N1CCOCC1)N1CCOCC1 (stereo unspecified) please.
-16.6

Report growth inhibition for CC(NC(=O)C(CSCc1ccccc1)NC(=O)OCc1ccccc1)C(=O)OCc1ccccc1 (stereo unspecified) please.
-9.7

Report growth inhibition for CCOC(=O)C(=CNc1ccc(NC2=NCC(C)S2)cc1)C(=O)OCC (stereo unspecified) please.
0.35

Report growth inhibition for `CCOc1ccccc1Br` please.
8.65

Now let's try a different one.
Report growth inhibition for `CN(C)CCNc1ccc(CO)c2sc3ccc(O)cc3c(=O)c12` please.
-3.65

* * *

assay.name: NCI Yeast Anticancer Drug Screen. Data for the sgs1 mgt1 strain (AID 161);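 note: 0% = growth of cultures given vehicle only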
experimental.context: S. cerevisiae sgs1 mgt1 strain, at 50.0 µM, hits give high values
Compounds without any hit were thinned out: in the full panel of roughly 79,000, 15% have a hit.
readout.label: growth inhibition (%)
Form entry: value (%) — number only.

Report growth inhibition for CC(C)C(C(=O)O)N(CC1(O)OCC(O)C(O)C1O)N=O (stereo unspecified) please.
-2.85

Further cases:
Report growth inhibition for `Cc1ccnc(Nc2nnc(Nc3cc(C)ccn3)c3ccccc23)c1` please.
-5.85

Report growth inhibition for `O=C(CO)CC(=O)C(=O)Nc1nc([N+](=O)[O-])cs1` please.
21

* * *

assay.name: NCI Yeast Anticancer Drug Screen. Data for the mlh1 rad18 strain (AID 175)
experimental.context: S. cerevisiae mlh1 rad18 strain growth inhibition; at 50.0 µM; hits give high values
The panel holds about 79,000 compounds, 15% with a hit somewhere; the sample as a whole holds those more often.
readout.label: growth inhibition (%)
Form entry: value (%) — number only.

Report growth inhibition for `CCOC(=O)c1sc(SC)nc1NC(=O)c1ccc(OC)cc1` please.
19.1

Report growth inhibition for `Cc1cccc2c(C(=O)O)c3cccc(C)c3nc12` please.
-3.95

Report growth inhibition for `On1ccc(N2CCOCC2)cc1=NC1CCCCC1` please.
25.7

Report growth inhibition for O=C(NC(Cc1ccccc1)C(=O)N1CCOCC1)c1ccccc1 (configuration not stated) please.
-0.35

Further cases:
Report growth inhibition for `C[C@@H]1O[C@]2(O)[C@@H]3CCCN3S(=O)(=O)CCN2C1=O` please.
-17.1

Report growth inhibition for `C=C(CBr)CCCCC` please.
0.55

Report growth inhibition for CC(N)CCN (configuration not stated) please.
1.55
